Each entry below carries its reported pIC50.
# Tested on: A704;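 also: growth inhibition of human A704 cells, read out with a cell viability assay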
# PROTOCOL SUMMARY: cells
# Type: functional, cell-based
# DETAILS: Homo sapiens
# Description: SANGER: Inhibition of human A704 cell growth in a cell viability assay.
pIC50: −log10 of the molar value.

- ENTRY SMILES: "Cc1ccc(NC(=O)c2ccc(CN3CCN(C)CC3)cc2)cc1Nc1nccc(-c2cccnc2)n1"
  ASSAYED TARGET: "A704"
  pIC50: "< 5.70"
- ENTRY SMILES: "NC1(c2ccc(-c3nc4ccn5c(=O)[nH]nc5c4cc3-c3ccccc3)cc2)CCC1"
  ASSAYED TARGET: "A704"
  pIC50: "< 5.40"
- ENTRY SMILES: "COc1ccc(N(C(=O)Oc2c(C)cccc2C)c2ccnc(Nc3ccc(N4CCN(C)CC4)cc3)n2)c(OC)c1"
  ASSAYED TARGET: "A704"
  pIC50: "> 7.70"
- ENTRY SMILES: "COc1ccc(-c2cc3nccn3c(Nc3ncccc3C(N)=O)n2)cc1OC"
  ASSAYED TARGET: "A704"
  pIC50: "< 5.10"
- ENTRY SMILES: "Cc1ccc(-n2nc(C(C)(C)C)cc2NC(=O)Nc2ccc(OCCN3CCOCC3)c3ccccc23)cc1"
  ASSAYED TARGET: "A704"
  pIC50: "< 5.00"
- ENTRY SMILES: "CS(=O)(=O)N1CCN(Cc2cc3nc(-c4cccc5[nH]ncc45)nc(N4CCOCC4)c3s2)CC1"
  ASSAYED TARGET: "A704"
  pIC50: 5.82
- ENTRY SMILES: "C[C@@H](Oc1cc(-c2cnn(C3CCNCC3)c2)cnc1N)c1c(Cl)ccc(F)c1Cl"
  ASSAYED TARGET: "A704"
  pIC50: "< 5.70"
- ENTRY SMILES: "NC(=O)c1cccc(-c2cc(Nc3ccc(OC(F)(F)F)cc3)ncn2)c1"
  ASSAYED TARGET: "A704"
  pIC50: "< 5.89"
